# Experimental Target: GST-fused m3MST (GST-3MST) (Mus musculus, UniProt Q99J99)
Measured Quantity: IC50 (µM)
// return numeric value only (unit: µM, not printed)

query: Notebook entry, GST-fused m3MST (GST-3MST) (Mus musculus, UniProt Q99J99) assay: IC50 of Cc1sc2nc(SCC(=O)c3ccc(O)cc3O)[nH]c(=O)c2c1C [compound 2] = ?
result: 6.3

// moving on: another record for IC50
query: Reported IC50 for GST-fused m3MST (GST-3MST) (Mus musculus, UniProt Q99J99), given Cc1cc(=O)[nH]c(SCC(=O)c2cccc3ccccc23)n1 [compound 3] ?
result: 2.7

###

# Inhibition of rhodanese conversion of cyanide ions to thiocyanide ions per entry
# Experimental Target: rhodanese (thiosulfate sulfurtransferase, Type II) (Bos taurus)
# Construct: Bovine liver rhodanese; purchased Sigma-Aldrich; host or cells: bovine liver
# Sequence (P00586 1-297): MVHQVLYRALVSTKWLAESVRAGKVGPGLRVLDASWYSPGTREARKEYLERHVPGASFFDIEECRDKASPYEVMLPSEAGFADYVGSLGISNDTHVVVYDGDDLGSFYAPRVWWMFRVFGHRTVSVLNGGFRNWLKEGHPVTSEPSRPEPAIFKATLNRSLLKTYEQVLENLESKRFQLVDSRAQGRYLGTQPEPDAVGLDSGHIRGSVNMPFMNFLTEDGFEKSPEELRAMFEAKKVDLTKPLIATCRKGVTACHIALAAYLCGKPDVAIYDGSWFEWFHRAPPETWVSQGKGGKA
# Assay Comment: Rhodanese activity, conversion of cyanide to thiocyanide (Sörbo method)
# Type: biochemical, bovine
# Condition Info: 100 μM compound; room temperature 5 min; mean ± S.D.
# Description: Figure 2 Selectivity assessment of hit compounds for 3MST over other H2S/polysulfides-producing enzymes and rhodanese. (a) 3MST-Inhibitory activity of hit compounds at 10 and 100 μM in cell lysate of 3MST-expressing HEK293 cells. […] H2S production was measured by gas chromatography. […] H2S production was monitored by gas chromatography. […] These values were determined based upon the absorbance of [Fe(SCN)3] at 460 nm (Sӧrbo method). […]
Respond numerically; units are % and should not be typed.

Recorded results for 3 compounds are shown here.
query: Inhibition of rhodanese conversion of cyanide ions to thiocyanide ions for Cc1sc2nc(SCC(=O)c3ccc(O)cc3O)[nH]c(=O)c2c1C ?
result: 10.9

query: Param item = O=C(O)c1cccc(NS(=O)(=O)c2ccccc2)c1 ; retrieve measured Inhibition of rhodanese conversion of cyanide ions to thiocyanide ions.
result: 9.7

query: For the compound shown here, Cc1cc(=O)[nH]c(SCC(=O)c2cccc3ccccc23)n1 , give the reported Inhibition of rhodanese conversion of cyanide ions to thiocyanide ions.
result: 1.7

Next, consider the following compound.
query: Recorded Inhibition of rhodanese conversion of cyanide ions to thiocyanide ions of NC(=O)c1ccsc1NC(=O)CSc1nc2ccccc2c(=O)[nH]1 , please.
result: 18.2

###

# Assay Comment: Reactivity test toward 3MP and DTT (2nd screening, no enzyme)
# Condition Info: 10 μM compound; 50 μM 3MP, 40 μM DTT; no 3MST; mean±S.D. n = 4
# Description: Reactivity of the hit compounds toward 3MP and DTT was examined. The final concentration of the compounds was 10 or 50 μM. The assay protocol was as follows: compounds were diluted with HSip-1 solution to 20 or 100 μM solution (10% DMSO) with a Multi-Drop Combi. […] The fluorescence of HSip-1 was measured (λex = 485 nm, λem = 520 nm) with a microplate reader (PHERAstar PLUS). […]
Measured Quantity: No Enzyme: inhibition of HSip-1 fluorescence increase caused by 3MP and DTT (%)
The reply should be a number in %, with the unit left off.

Please review the following examples before continuing.
query: Name the reported No Enzyme: inhibition of HSip-1 fluorescence increase caused by 3MP and DTT value associated with the compound NC(=O)c1ccsc1NC(=O)CSc1nc2ccccc2c(=O)[nH]1 [compound 1]
result: 10.1

query: Which measured No Enzyme: inhibition of HSip-1 fluorescence increase caused by 3MP and DTT value corresponds to Cc1sc2nc(SCC(=O)c3ccc(O)cc3O)[nH]c(=O)c2c1C [compound 2] ?
result: 7.4

More entries:
query: Requested field: No Enzyme: inhibition of HSip-1 fluorescence increase caused by 3MP and DTT. Item: O=C(O)c1cccc(NS(=O)(=O)c2ccccc2)c1 [compound 5]
result: 11.4

query: Please report the recorded No Enzyme: inhibition of HSip-1 fluorescence increase caused by 3MP and DTT for Cc1cc(=O)[nH]c(SCC(=O)c2cccc3ccccc23)n1 [compound 3] .
result: 7.4

###

# Experimental Target: GST-fused m3MST (GST-3MST) (Mus musculus)
# Construct: made in house; host or cells: E. coli BL21
# Assay Comment: 3MST inhibitor screening with H2S fluorescent probe HSip-1 (confirmation test, titration test)
# Format: biochemical
# Condition Info: 10 μM compound; HSip-1 fluorescence; 50 μM 3MP, 40 μM DTT; room temperature 3 hr; mean±S.D. n = 4
Measured Quantity: inhibition at 10 µM

Example results:
query: I'd like to know its inhibition at 10 µM. The molecule in question is O=C(O)c1cccc(NS(=O)(=O)c2ccccc2)c1
result: 95.5%

query: // lookup inhibition at 10 µM for Cc1sc2nc(SCC(=O)c3ccc(O)cc3O)[nH]c(=O)c2c1C
result: 81.7%

query: Given the entry NC(=O)c1ccsc1NC(=O)CSc1nc2ccccc2c(=O)[nH]1 , report its measured inhibition at 10 µM.
result: 103%

Turning now to a further molecule:
query: Give its inhibition at 10 µM value. Item: Cc1cc(=O)[nH]c(SCC(=O)c2cccc3ccccc23)n1
result: 102%

###

# Assay Comment: Reactivity test toward 3MP and DTT (2nd screening, no enzyme)
# Condition Info: 50 μM compound; 50 μM 3MP, 40 μM DTT; no 3MST; mean±S.D. n = 4
# Protocol: Reactivity of the hit compounds toward 3MP and DTT was examined. The final concentration of the compounds was 10 or 50 μM. The assay protocol was as follows: compounds were diluted with HSip-1 solution to 20 or 100 μM solution (10% DMSO) with a Multi-Drop Combi. […] The fluorescence of HSip-1 was measured (λex = 485 nm, λem = 520 nm) with a microplate reader (PHERAstar PLUS). […]
Measured Quantity: No Enzyme: inhibition of HSip-1 fluorescence increase caused by 3MP and DTT (%)
Hi! Could you send only the number? It should be in %, unit omitted.

Would you please look over these solved cases?
query: Dear colleague, I am looking for the recorded No Enzyme: inhibition of HSip-1 fluorescence increase caused by 3MP and DTT of the following compound: NC(=O)c1ccsc1NC(=O)CSc1nc2ccccc2c(=O)[nH]1 [compound 1]
result: 17.2

query: Param item = O=C(O)c1cccc(NS(=O)(=O)c2ccccc2)c1 [compound 5] ; retrieve measured No Enzyme: inhibition of HSip-1 fluorescence increase caused by 3MP and DTT.
result: 10.5

query: Requested read-out: No Enzyme: inhibition of HSip-1 fluorescence increase caused by 3MP and DTT. Entry: Cc1cc(=O)[nH]c(SCC(=O)c2cccc3ccccc23)n1 [compound 3]
result: 6.3

Let us examine a further case.
query: Tell me the measured No Enzyme: inhibition of HSip-1 fluorescence increase caused by 3MP and DTT of Cc1sc2nc(SCC(=O)c3ccc(O)cc3O)[nH]c(=O)c2c1C [compound 2] , please.
result: -23.6

###

Each record here notes measured inhibition at 10 µM.
# Experimental Target: recombinant purified m3MST (Mus musculus, UniProt Q99J99)
# Construct: made in house; host or cells: E. coli BL21
# Assay Comment: Inhibitory activity toward purified m3MST by gas chromatography
# Format: biochemical
# Condition Info: 10 μM compound; 50 μM 3MP, 40 μM DTT; room temperature 3 hr; mean±S.D. n = 2; read-out: Inhibitory activity toward recombinant purified m3MST (H2S production by gas chromatography)
Numbers only; they are read as %.

query: I would be grateful if you could share the reported inhibition at 10 µM for O=C(O)c1cccc(NS(=O)(=O)c2ccccc2)c1 [compound 5] .
result: 90.9

query: # lookup: inhibition at 10 µM of Cc1sc2nc(SCC(=O)c3ccc(O)cc3O)[nH]c(=O)c2c1C [compound 2]
result: 93.4

query: Param item = NC(=O)c1ccsc1NC(=O)CSc1nc2ccccc2c(=O)[nH]1 [compound 1] ; retrieve measured inhibition at 10 µM.
result: 104

Continue with the next compound.
query: Quick one: inhibition at 10 µM of Cc1cc(=O)[nH]c(SCC(=O)c2cccc3ccccc23)n1 [compound 3] ?
result: 90.3

###

Measured Kd values are reported for all entries that follow.
# Experimental Target: persulfurated 3MST (Mus musculus)
# Construct: The recombinant full-length wild-type mouse 3MST
# Assay Comment: ITC analysis with persulfurated 3MST
# Condition Info: persulfurated (3MP-treated) 3MST; 25 °C; pH 9; read-out: Dissociation constant Kd (ITC)
The figure you give is taken to be in µM; do not add the unit.

query: API: value(readout=Kd, system=persulfurated 3MST (Mus musculus)) for record Cc1cc(=O)[nH]c(SCC(=O)c2cccc3ccccc23)n1
result: 0.5

Could you now consider this next compound?
query: Query Kd on persulfurated 3MST (Mus musculus) for NC(=O)c1ccsc1NC(=O)CSc1nc2ccccc2c(=O)[nH]1
result: 3
